test-summary: Plasma half life in rat after 5 mg/kg oral gavage; 6-8 hours
Type: ADME, organism-based
Parameters: dose 5 mg/kg, route oral
property-label: half-life (h)
The answer is to be given in h; state only the numeric part.

Task: I'd like to know its half-life. The molecule in question is CNC(=O)OC[C@H]1OC(n2cnc3c(N[C@@H]4CCOC4)ncnc32)[C@H](O)[C@@H]1O (stereo partly specified)
Result: 8

###

System: Adenosine receptor A1 (Mesocricetus auratus)
test-summary: Stimulation of binding of [35S]GTP uM)
property-label: [35S]GTPγS binding stimulation (% of CPA) (%)
Please give a number only; it is taken to be in %.

Worked set:
# compound, endpoint-value
records = [
    ("O=C(NC1CCC1)OC[C@H]1OC(n2cnc3c(N[C@@H]4CCOC4)ncnc32)[C@H](O)[C@@H]1O (some centres not stated)", 67),
    ("O[C@@H]1[C@@H](COC(=S)NC2CCCC2)OC(n2cnc3c(N[C@@H]4CCOC4)ncnc32)[C@@H]1O (some centres not stated)", 95),
    ("C=CCNC(=O)OC[C@H]1OC(n2cnc3c(N[C@@H]4CCOC4)ncnc32)[C@H](O)[C@@H]1O (some centres not stated)", 48),
]

Task: Reported [35S]GTPγS binding stimulation (% of CPA) for CNC(=S)OC[C@H]1OC(n2cnc3c(N[C@@H]4CCOC4)nc(Cl)nc32)[C@H](O)[C@@H]1O (some centres not stated) : what is it?
Result: 77

Task: Item under review: CC(C)NC(=S)OC[C@H]1OC(n2cnc3c(N[C@@H]4CCOC4)ncnc32)[C@H](O)[C@@H]1O (some centres not stated) . Reported [35S]GTPγS binding stimulation (% of CPA)?
Result: 84

Task: Would you mind telling me what [35S]GTPγS binding stimulation (% of CPA) value was observed for CC(C)NC(=O)OC[C@H]1OC(n2cnc3c(N[C@@H]4CCOC4)ncnc32)[C@H](O)[C@@H]1O (some centres not stated) ?
Result: 91

Task: I'd like to know its [35S]GTPγS binding stimulation (% of CPA). The compound in question is CCCNC(=O)OC[C@H]1OC(n2cnc3c(N[C@@H]4CCOC4)ncnc32)[C@H](O)[C@@H]1O (some centres not stated)
Result: 73

Task: Please give the measured [35S]GTPγS binding stimulation (% of CPA) for this compound: O[C@@H]1[C@@H](COC(=S)NC2CCC2)OC(n2cnc3c(N[C@@H]4CCOC4)ncnc32)[C@@H]1O (some centres not stated)
Result: 79

###

AUC at 8 h values for the compounds below.
test-summary: Concentration in rat plasma after 5 mg/kg oral gavage for 8 hours
Type: ADME, organism-based
Design: dose 5 mg/kg, route oral
# unit: ng·h/mL | format: bare number

# compound, property-label, endpoint-value
records = [
    ("CNC(=O)OC[C@H]1OC(n2cnc3c(N[C@@H]4CCOC4)ncnc32)[C@H](O)[C@@H]1O (some centres not stated)", "AUC at 8 h", 698),
]

Task: Please report the recorded AUC at 8 h for CNC(=O)OC[C@H]1OC(n2cnc3c(N[C@@H]4CCOC4)ncnc32)[C@H](OC(C)=O)[C@@H]1OC(C)=O (some centres not stated) .
Result: 1340

###

Organism: Cavia porcellus
test-summary: Agonist-induced SH prolongation in guinea pig isolated heart was determined; 0.5-1 uM (Partial agonist)
Assay type: functional, organism-based
property-label: pEC50
Just the number, please; pEC50 means minus log10 of the concentration in mol/L.

Task: Return reported pEC50; argument: CCCNC(=S)OC[C@H]1OC(n2cnc3c(N[C@@H]4CCOC4)ncnc32)[C@H](O)[C@@H]1O (stereo partly specified)
Result: 6.00

###

Tested on: Adenosine receptor A1 (Mesocricetus auratus)
test-summary: Stimulation of binding of [35S]GTP uM)
property-label: [35S]GTPγS binding stimulation (% of CPA) (%)
Numbers only here, please. The scale is %.

Before answering, review these 3 worked examples.
# molecule, quantity-unit, endpoint-value
data = [
    ("O[C@@H]1[C@@H](COC(=S)NCc2ccccc2)OC(n2cnc3c(N[C@@H]4CCOC4)ncnc32)[C@@H]1O (some centres undefined)", "%", 93),
    ("CN(C)C(=S)OC[C@H]1OC(n2cnc3c(N[C@@H]4CCOC4)ncnc32)[C@H](O)[C@@H]1O (some centres undefined)", "%", 85),
    ("O=C(NC1CC1)OC[C@H]1OC(n2cnc3c(N[C@@H]4CCOC4)ncnc32)[C@H](O)[C@@H]1O (some centres undefined)", "%", 82),
]

// moving on: another record for [35S]GTPγS binding stimulation (% of CPA)
Task: Field request: [35S]GTPγS binding stimulation (% of CPA) | item: CCNC(=S)OC[C@H]1OC(n2cnc3c(N[C@@H]4CCOC4)nc(Cl)nc32)[C@H](O)[C@@H]1O (some centres undefined)
Result: 84

###

System: Adenosine receptor A1 (Mesocricetus auratus)
test-summary: Stimulation of binding of [35S]GTP uM)
Please enter Yes where [35S]GTPγS binding stimulation (% of CPA) is greater than or equal to 80%, and No where it is lower.

Task: API: above_or_equal(metric=[35S]GTPγS binding stimulation (% of CPA), cutoff=80%) for item O=C(NCc1ccccc1)OC[C@H]1OC(n2cnc3c(N[C@@H]4CCOC4)ncnc32)[C@H](O)[C@@H]1O (some centres undefined)
Result: No

###

System: Adenosine receptor A1 (Mesocricetus auratus)
test-summary: Stimulation of binding of [35S]GTP uM)
Field 'label' (enum: TRUE / FALSE). Set to TRUE when [35S]GTPγS binding stimulation (% of CPA) is strictly under 80%; else FALSE.

Some entries whose results are on file:
# molecule, study-target, category-label
rows = [
    ("CCCCNC(=S)OC[C@H]1OC(n2cnc3c(N[C@@H]4CCOC4)ncnc32)[C@H](O)[C@@H]1O (stereo partly drawn)", "Adenosine receptor A1 (Mesocricetus auratus)", "TRUE"),
    ("CNC(=O)OC[C@H]1OC(n2cnc3c(N[C@@H]4CCOC4)nc(Cl)nc32)[C@H](O)[C@@H]1O (stereo partly drawn)", "Adenosine receptor A1 (Mesocricetus auratus)", "TRUE"),
    ("CNC(=S)OC[C@H]1OC(n2cnc3c(N[C@@H]4CCOC4)ncnc32)[C@H](O)[C@@H]1O (stereo partly drawn)", "Adenosine receptor A1 (Mesocricetus auratus)", "TRUE"),
    ("CCNC(=S)OC[C@H]1OC(n2cnc3c(N[C@@H]4CCOC4)ncnc32)[C@H](O)[C@@H]1O (stereo partly drawn)", "Adenosine receptor A1 (Mesocricetus auratus)", "TRUE"),
]

Then this molecule:
Task: Please indicate whether the reported [35S]GTPγS binding stimulation (% of CPA) of CN(C)C(=O)OC[C@H]1OC(n2cnc3c(N[C@@H]4CCOC4)ncnc32)[C@H](O)[C@@H]1O (stereo partly drawn) is strictly below 80%.
Result: FALSE

###

Tested on: Adenosine receptor A1 (Mesocricetus auratus)
test-summary: Stimulation of binding of [35S]GTP uM)
The reader will find reported [35S]GTPγS binding stimulation (% of CPA) values listed item by item below.
Form entry: value (%) — number only.

Consider the reported [35S]GTPγS binding stimulation (% of CPA) for these molecules:
# molecule, study-target, quantity-unit, endpoint-value
data = [
    ("O[C@@H]1[C@@H](COC(=S)NC2CCCCC2)OC(n2cnc3c(N[C@@H]4CCOC4)ncnc32)[C@@H]1O (stereo partly drawn)", "Adenosine receptor A1 (Mesocricetus auratus)", "%", 82),
    ("C=CCNC(=S)OC[C@H]1OC(n2cnc3c(N[C@@H]4CCOC4)ncnc32)[C@H](O)[C@@H]1O (stereo partly drawn)", "Adenosine receptor A1 (Mesocricetus auratus)", "%", 78),
]

Then this molecule:
Task: What value of [35S]GTPγS binding stimulation (% of CPA) has been recorded for this entry: CCNC(=O)OC[C@H]1OC(n2cnc3c(N[C@@H]4CCOC4)ncnc32)[C@H](O)[C@@H]1O (stereo partly drawn)
Result: 80

All values here come from ChEMBL document CHEMBL1137938.
